B1: DLC1 (parent)
chain: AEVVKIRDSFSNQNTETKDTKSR

Variants of: B1
Experiment: protein stability index of a GFP-peptide fusion (GPS, HEK-293T) (PSI 1-6); higher = more stable;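 further: lentivirally expressed fusions sorted by FACS into six bins by GFP to DsRed ratio, PSI derived from sequencing read proportions per bin multiplied by bin number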
Details: c terminus: native
Readout Type: protein stability index
When you answer, write just the number.

Reference set (6 entries):
query_sequence="AEVVKFRDSFSNQNTETKDTKSR [I6F]" measured_number=2.41
query_sequence="CEVVKIRDSFSNQNTETKDTKSR [A1C]" measured_number=2.19
query_sequence="AEVVKIRDSFSNQNQETKDTKSR [T15Q]" measured_number=2.98
query_sequence="AEVVKIRDSFSNQNTETKFTKSR [D19F]" measured_number=1.92
query_sequence="AEVVKIRDSSSNQNTETKDTKSR [F10S]" measured_number=4
query_sequence="AEVVKIRDSFSNQNTEYKDTKSR [T17Y]" measured_number=2.31

Sample AEVVKIRDSFSNQNTETKDPKSR [T20P] ; protein stability index observed: 2.88

Reference source: the supplement of paper PMC10567573
